molecular target: IGF-1R (Homo sapiens, UniProt P08069); construct: other kinases of recombinant human cytoplasmic domain; assay: radiometric kinase assay, other kinases: IGF-1R; details: duplicate
Sequence (P08069 960-1367 limits assumed): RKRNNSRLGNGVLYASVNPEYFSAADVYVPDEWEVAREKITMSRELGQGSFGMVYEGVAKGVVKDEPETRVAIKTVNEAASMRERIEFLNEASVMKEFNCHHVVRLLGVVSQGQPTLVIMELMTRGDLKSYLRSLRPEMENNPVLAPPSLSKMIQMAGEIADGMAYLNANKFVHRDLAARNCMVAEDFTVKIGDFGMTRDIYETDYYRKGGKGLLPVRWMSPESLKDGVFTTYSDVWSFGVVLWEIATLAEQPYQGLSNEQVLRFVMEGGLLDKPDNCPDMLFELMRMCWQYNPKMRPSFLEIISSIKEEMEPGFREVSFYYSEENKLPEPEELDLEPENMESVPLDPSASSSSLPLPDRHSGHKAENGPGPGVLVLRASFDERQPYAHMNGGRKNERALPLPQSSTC
outcome.measure: IC50

Q. Fill in reported IC50 for this entry: Nc1c(N2CCN(C3CCCCC3)CC2)cc(Nc2ccc(C(=O)O)cc2)c2c1C(=O)c1ccccc1C2=O
A. > 10 µM

* * *

biological target: PDGFRa (Homo sapiens); construct: other kinases of recombinant human cytoplasmic domain; assay: radiometric kinase assay, other kinases: PDGFRa; settings: duplicate
Sequence (P16234 550-1089 limits assumed): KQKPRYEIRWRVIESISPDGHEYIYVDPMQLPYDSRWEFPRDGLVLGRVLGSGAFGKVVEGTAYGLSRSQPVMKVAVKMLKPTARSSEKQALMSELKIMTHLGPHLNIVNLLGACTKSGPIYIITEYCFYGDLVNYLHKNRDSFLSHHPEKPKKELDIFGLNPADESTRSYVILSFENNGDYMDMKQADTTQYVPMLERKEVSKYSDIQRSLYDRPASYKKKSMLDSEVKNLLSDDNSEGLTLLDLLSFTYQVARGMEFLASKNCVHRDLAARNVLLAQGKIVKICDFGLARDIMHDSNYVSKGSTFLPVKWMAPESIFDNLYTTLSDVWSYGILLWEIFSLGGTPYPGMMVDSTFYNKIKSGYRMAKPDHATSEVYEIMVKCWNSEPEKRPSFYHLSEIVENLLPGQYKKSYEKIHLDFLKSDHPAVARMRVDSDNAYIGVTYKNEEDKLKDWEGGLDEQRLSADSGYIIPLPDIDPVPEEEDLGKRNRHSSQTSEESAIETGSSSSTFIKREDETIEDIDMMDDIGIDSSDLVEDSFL
outcome.measure: IC50

Q. Fill in reported IC50 for this entry: Nc1c(N2CCN(C3CCCCC3)CC2)cc(Nc2ccc(C(=O)O)cc2)c2c1C(=O)c1ccccc1C2=O [Compound 12]
A. > 10 µM
